Data provenance: paper PMC6888877

For each of the binders below, state its Kd.
# Subject of test: T1, Arabidopsis thaliana phytochrome B photosensory core module (AtPhyB PCM) (Arabidopsis thaliana, UniProt P14713 1-651, covalently incorporated bilin chromophore (PCB; co-expressed Synechocystis sp. heme oxygenase 1 and pcyA))
# T1 construct: A. thaliana phytochrome B, photosensory core module (PAS-GAF-PHY with N-terminal extension), residues 1-651; Pr state (far-red light or dark) and Pfr state (red light; Pfr/Pr about 0.56/0.44) are told apart by the assays; In the cell experiments other constructs were used (PCM-VP16; PCM 1-650 with CAAX); source: E. coli BL21(DE3), plasmid pDG282, purified (Ni-NTA IMAC, anion exchange)
# T1 sequence (looked up): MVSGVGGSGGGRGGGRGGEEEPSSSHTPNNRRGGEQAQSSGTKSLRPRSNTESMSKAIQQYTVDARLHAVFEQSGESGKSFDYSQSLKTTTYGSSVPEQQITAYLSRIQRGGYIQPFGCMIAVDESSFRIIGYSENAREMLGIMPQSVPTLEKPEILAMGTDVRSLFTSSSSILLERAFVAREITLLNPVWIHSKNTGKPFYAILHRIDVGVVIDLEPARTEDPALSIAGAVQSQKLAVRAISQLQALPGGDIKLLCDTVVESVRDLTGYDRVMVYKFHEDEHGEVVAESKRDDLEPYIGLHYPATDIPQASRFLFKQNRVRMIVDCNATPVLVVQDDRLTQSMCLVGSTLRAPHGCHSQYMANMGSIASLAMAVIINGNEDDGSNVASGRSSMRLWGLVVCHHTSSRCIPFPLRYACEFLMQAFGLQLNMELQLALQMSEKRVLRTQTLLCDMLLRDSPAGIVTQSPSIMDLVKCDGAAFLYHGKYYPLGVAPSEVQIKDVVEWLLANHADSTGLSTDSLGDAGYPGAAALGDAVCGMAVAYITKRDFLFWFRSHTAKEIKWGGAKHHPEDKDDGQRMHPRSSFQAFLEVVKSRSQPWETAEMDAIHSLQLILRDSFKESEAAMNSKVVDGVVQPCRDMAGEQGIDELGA
# Method description: fluorescence polarisation; anisotropy of EYFP; 20 nM AtPIF-EYFP constant, AtPhyB PCM 0-10 µM titrated, red light (640 nm), Pfr state; KD corrected for the Pfr fraction (about 0.56); 20 mM HEPES/HCl pH 7.3, 10 mM NaCl, 100 µg/mL BSA; single-site isotherm
# Particulars: both partners purified
Numbers only, in nM.

Some binders with recorded Kd:
Binder	Kd, nM
P6 (AtPIF6 1-100 without the N-terminal region preceding APB.A)-EYFP (domain or fragment) MDQEYMELVFENGQILAKGQRSNVSLHNQRTKSIMDLYEAEYNEDFMKSIIHGGGGAITNLGDTQVVPQSHVAAAHETNMLESNKHVD	10
MDQEYMELVFENGQILAKGQRSNVSLHNQRTKSIMDLYEA (domain or fragment) [P6.A-EYFP]	280
P3 (AtPIF3 1-100 without the N-terminal region preceding APB.A)-EYFP (domain or fragment) MVDEVVELVWENGQISTQSQSSRSRNIPPPQANSSRAREIGNGSKTTMVDEIPMSVPSLMTGLSQDDDFVPWLNHH	220
P6.fus-EYFP (domain or fragment) MDQEYMELVFENGQILAKGQRSNAITNLGDTQVVPQSHVAAAHETNMLESNKHVD	200

Shift focus to the following entry.
Request: // returns reported Kd for input P6.AAfus-EYFP (domain or fragment) MDQEYMELVFENGQILAKGQRSNDQEYMELVFENGQILAKGQRSNTNMLESNKHVD
Response: 230
